Molecular target: BceF kinase domain (Burkholderia cepacia)
Sequence (Q0GYW2 entry or part of it): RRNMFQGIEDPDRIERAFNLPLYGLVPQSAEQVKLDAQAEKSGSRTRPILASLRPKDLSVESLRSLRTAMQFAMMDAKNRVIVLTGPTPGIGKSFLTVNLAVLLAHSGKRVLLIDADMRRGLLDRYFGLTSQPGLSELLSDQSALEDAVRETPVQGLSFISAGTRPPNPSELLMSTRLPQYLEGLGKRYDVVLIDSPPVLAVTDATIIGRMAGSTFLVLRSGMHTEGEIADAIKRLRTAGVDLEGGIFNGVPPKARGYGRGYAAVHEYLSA
value-type: Kd

Ask | Note down Kd recorded for Nc1ncnc2c1ncn2[C@@H]1O[C@H](COP(=O)(O)OP(=O)(O)NP(=O)(O)O)[C@@H](O)[C@H]1O
Reply | 1640 µM
